# tested on: PIK3CA (Homo sapiens, UniProt P42336)
# Construct: endogenous in cells
# Sequence (P42336 whole entry): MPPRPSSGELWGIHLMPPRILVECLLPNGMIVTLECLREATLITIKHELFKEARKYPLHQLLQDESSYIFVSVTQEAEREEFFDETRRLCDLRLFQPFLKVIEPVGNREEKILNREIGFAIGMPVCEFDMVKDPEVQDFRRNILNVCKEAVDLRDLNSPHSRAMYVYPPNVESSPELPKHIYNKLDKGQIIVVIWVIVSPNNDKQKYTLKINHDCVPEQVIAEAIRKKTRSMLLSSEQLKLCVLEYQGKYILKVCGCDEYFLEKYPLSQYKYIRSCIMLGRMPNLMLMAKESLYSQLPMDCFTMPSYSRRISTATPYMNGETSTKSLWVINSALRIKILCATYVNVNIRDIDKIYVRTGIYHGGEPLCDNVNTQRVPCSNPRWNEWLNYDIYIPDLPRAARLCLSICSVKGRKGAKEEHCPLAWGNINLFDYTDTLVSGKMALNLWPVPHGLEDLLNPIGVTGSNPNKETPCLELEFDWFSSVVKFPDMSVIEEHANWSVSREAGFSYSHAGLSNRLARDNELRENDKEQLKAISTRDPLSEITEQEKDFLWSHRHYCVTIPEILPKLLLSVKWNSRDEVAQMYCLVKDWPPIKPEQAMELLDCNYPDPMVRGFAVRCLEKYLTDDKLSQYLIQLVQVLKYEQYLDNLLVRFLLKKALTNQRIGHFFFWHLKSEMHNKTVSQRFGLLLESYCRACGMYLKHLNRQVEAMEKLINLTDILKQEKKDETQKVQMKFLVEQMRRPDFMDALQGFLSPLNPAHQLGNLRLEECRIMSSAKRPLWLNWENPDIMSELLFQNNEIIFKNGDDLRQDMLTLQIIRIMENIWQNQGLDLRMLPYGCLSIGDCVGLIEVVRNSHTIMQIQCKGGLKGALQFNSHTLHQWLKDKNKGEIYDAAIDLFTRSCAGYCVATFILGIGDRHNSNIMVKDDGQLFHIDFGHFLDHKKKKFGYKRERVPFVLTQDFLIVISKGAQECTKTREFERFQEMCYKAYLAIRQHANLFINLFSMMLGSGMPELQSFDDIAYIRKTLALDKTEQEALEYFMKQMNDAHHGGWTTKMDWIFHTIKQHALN
# Sequence (P27986 whole entry partner): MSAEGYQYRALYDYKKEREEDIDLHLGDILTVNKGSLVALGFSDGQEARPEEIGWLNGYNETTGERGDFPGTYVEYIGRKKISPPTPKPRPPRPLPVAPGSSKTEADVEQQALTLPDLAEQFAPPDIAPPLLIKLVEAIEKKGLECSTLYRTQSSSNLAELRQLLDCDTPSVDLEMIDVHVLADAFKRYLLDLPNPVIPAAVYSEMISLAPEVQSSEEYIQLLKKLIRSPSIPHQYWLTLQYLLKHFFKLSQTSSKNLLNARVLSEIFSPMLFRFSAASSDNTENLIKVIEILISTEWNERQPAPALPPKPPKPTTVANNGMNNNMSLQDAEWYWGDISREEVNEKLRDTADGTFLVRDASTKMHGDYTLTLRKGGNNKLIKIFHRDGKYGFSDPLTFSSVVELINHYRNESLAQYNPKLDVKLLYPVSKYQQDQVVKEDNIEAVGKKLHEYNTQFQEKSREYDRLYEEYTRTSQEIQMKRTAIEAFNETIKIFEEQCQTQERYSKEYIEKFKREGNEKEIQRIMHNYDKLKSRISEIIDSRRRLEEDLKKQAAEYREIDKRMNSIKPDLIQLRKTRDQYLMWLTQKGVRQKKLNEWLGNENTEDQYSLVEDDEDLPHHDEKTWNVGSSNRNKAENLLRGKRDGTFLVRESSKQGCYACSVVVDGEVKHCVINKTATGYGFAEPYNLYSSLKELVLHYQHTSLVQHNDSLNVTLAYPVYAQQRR
# procedure text: In vitro ELISA target engagement assay for PIK3CA in Jurkat cellular lysate (competition with PIK3CA Biotin Probe)
# study conditions: 1 hour at rt, then 500 nM PIK3CA Biotin Probe, read-out: Elisa Target Engagement Assay (TE50)
pIC50: −log10 of the molar value.
Please mark Met if the recorded pIC50 is equal to or greater than 7, and Not met if it falls below.

Solved cases (5 shown):
API: above_or_equal(metric=pIC50, cutoff=7) for item "O=C(N[C@@H]1C=CS(=O)(=O)C1)C1(F)CCN(S(=O)(=O)c2ccc(Br)cc2-c2ccccc2Cl)CC1"
Met

Does the compound "C[C@@H](/C=C\S(C)(=O)=O)NC(=O)C1(F)CCN(S(=O)(=O)c2cnc(C(F)(F)F)cc2-c2ccccc2Cl)CC1" have recorded pIC50 that is 7 or more?
Met

Please tell me: is the compound "COc1ccc(S(=O)(=O)N2CCC(F)(C(=O)N[C@H](C)/C=C\S(C)(=O)=O)CC2)c(-c2c(F)cccc2Cl)c1" at or over 7 in terms of pIC50?
Not met

Decide: pIC50 of "C[C@H](/C=C\S(C)(=O)=O)NC(=O)C1(F)CCN(S(=O)(=O)c2cc(=O)n(C)cc2-c2ccccc2Cl)CC1" >= 7?
Not met

Decide: pIC50 of "C[C@H](/C=C\S(C)(=O)=O)NC(=O)C1(F)CCN(S(=O)(=O)c2ccc(CCO)cc2-c2ccccc2Cl)CC1" >= 7?
Not met

Now consider a different compound.
I'd appreciate it if you could say whether "CC[C@H](/C=C\S(C)(=O)=O)NC(=O)[C@@]1(F)CCCN(C(=O)[C@H]2CN(CC(F)(F)F)C[C@H]2c2ccccc2Cl)CC1" has pIC50 at least equal to 7.
Not met

* * *

# Tested on: pAKT(S473) in H358 cell line
# procedure text: In vitro Phospho-AKT(S473) HTRF analysis in H358 cells
# Assay type: cell-based
# study conditions: Homo sapiens, NCI-H358, 0.5 h; H358 cells, 30 minutes at 37° C.
# note: exactly 300 nM is not below, so it is 0; use 1 for IC50 strictly under it

As a guide, the following entries are already answered.
Check if IC50 falls below 300 nM for C[C@H](/C=C\S(C)(=O)=O)NC(=O)[C@@]1(F)CCCN(C(=O)[C@H]2CN(CC(F)(F)F)C[C@H]2c2ccccc2F)CC1 (single isomer, unassigned) .
0

Is IC50 strictly under 300 nM for the entry "C[C@@H](/C=C\S(C)(=O)=O)NC(=O)[C@@]1(F)CCCN(C(=O)[C@H]2CN(CC(F)(F)F)C[C@H]2c2c(F)cccc2Cl)CC1" ?
0

Hi there! Is IC50 for "COc1ccc(Cl)c(-c2cc(Cl)ncc2S(=O)(=O)N2CCC(F)(C(=O)N[C@H](C)/C=C\S(C)(=O)=O)CC2)c1" below 300 nM, do you know?
0

# TODO verify IC50 < 300 nM strictly for this molecule: C[C@H](/C=C\S(C)(=O)=O)NC(=O)[C@@]1(F)CCCN(C(=O)[C@@H]2CN(CC(C)(F)F)C[C@@H]2c2cccc(F)c2Cl)CC1 (single isomer, unassigned)
1

Does the reported IC50 of the following molecule sit strictly below 300 nM? "C[C@@H](/C=C\S(C)(=O)=O)NC(=O)C1(F)CCN(S(=O)(=O)c2cnc(C(F)(F)F)cc2-c2ccccc2Cl)CC1"
1

Next:
Please determine if Cc1ccc([C@@H]2CN(CC(F)(F)F)C[C@@H]2C(=O)N2CCC[C@](F)(C(=O)N[C@H](C)/C=C\S(C)(=O)=O)CC2)c(Cl)c1 (single isomer, unassigned) is below 300 nM in terms of IC50.
1

* * *

The entries below are paired with their reported IC50.
# tested on: PIK3CA_C242 (Homo sapiens, UniProt P42336)
# Construct: endogenous in cells
# Sequence (P42336 whole entry): as the sequence (P42336 whole entry) above
# Sequence (P27986 whole entry partner): as the sequence (P27986 whole entry partner) above
# procedure text: Proteomic TE50 (IA-DTB / TMT mass spectrometry) in Jurkat cell lysate
# study conditions: 1 hour at rt, 7-point dose response
Quick note: unit goes after the number.

# annotated cases, reported IC50 shown
So what does the record say about IC50 for COc1ccc(Cl)c(-c2cc(N(C)C)ccc2S(=O)(=O)N2CCC(F)(C(=O)N[C@@H](C)/C=C\S(C)(=O)=O)CC2)c1 [Compound 87] ?
400 nM

// lookup IC50 for COc1ccc(S(=O)(=O)N2CCC(F)(C(=O)NC/C=C/S(C)(=O)=O)CC2)c(-c2ccccc2Cl)c1 [Compound 43]
264 nM

Return reported IC50; argument: CCc1ccc(S(=O)(=O)N2CCC(F)(C(=O)N[C@H](C)/C=C\S(C)(=O)=O)CC2)c(-c2ccccc2C)c1 [Compound 113]
170 nM

As a next step, examine the compound that follows.
Field request: IC50 | item: C=C(C)c1ccc(S(=O)(=O)N2CCC(F)(C(=O)N[C@H](C)/C=C\S(C)(=O)=O)CC2)c(-c2ccccc2Cl)c1 [Compound 109]
280 nM

* * *

# Test system: pAKT(S473) in H358 cell line
# procedure text: In vitro Phospho-AKT(S473) HTRF analysis in H358 cells
# Format: cell-based
# study conditions: Homo sapiens, NCI-H358, 0.5 h; H358 cells, 30 minutes at 37° C.
Measured pIC50 of individual entries
Please report pIC50 as the negative decimal logarithm of the molar concentration, giving only the number.

Recorded pIC50 of "C[C@H](/C=C\S(C)(=O)=O)NC(=O)C1(F)CCN(C(=O)[C@H]2CN(CC(C)(F)F)C[C@H]2c2ccccc2Cl)CC1" , please.
6.78

Entry under review: C[C@H](/C=C\S(C)(=O)=O)NC(=O)[C@@]1(F)CCCN(C(=O)N2CCN(CC(F)(F)F)C[C@H]2c2ccccc2Cl)CC1 (single isomer, unassigned) . Reported pIC50?
6.56

Consider the record given below.
Look up pIC50: "C[C@H](/C=C\S(C)(=O)=O)NC(=O)[C@@]1(F)CCCN(C(=O)[C@H]2CN(CC(F)(F)Cl)C[C@H]2c2ccccc2Cl)CC1"
6.91

* * *

# tested on: PIK3CA (Homo sapiens, UniProt P42336)
# Construct: endogenous in cells
# procedure text: In vitro ELISA target engagement assay for PIK3CA in Jurkat cellular lysate (competition with PIK3CA Biotin Probe)
# study conditions: 1 hour at rt, then 500 nM PIK3CA Biotin Probe, read-out: Elisa Target Engagement Assay (TE50)
measure name: pIC50
Note on pIC50: it is the negative log10 of concentration, concentration in mol/L.

// solved cases for pIC50 follow
# lookup: pIC50 of C[C@@H](/C=C\S(C)(=O)=O)NC(=O)C1(F)CCN(S(=O)(=O)c2ccc(C(F)(F)F)cc2-c2ccccc2Cl)CC1 [Compound 18]
7.42

Which pIC50 value is on record for C[C@H](/C=C\S(C)(=O)=O)NC(=O)C1(F)CCN(C(=O)[C@H]2COC(C)(C)C[C@@H]2c2ccccc2Cl)CC1 (racemic) [Compound 256] ?
6.11

Attention now turns to another entry.
Entry C[C@H](/C=C\S(C)(=O)=O)NC(=O)[C@@]1(F)CCCN(C(=O)N2CCN(CC(F)(F)F)C[C@H]2c2ccccc2Cl)CC1 (single isomer, unassigned) [Compound 309] : reported pIC50 = ?
6.41

* * *

Examples of molecules with documented pIC50 follow.
# tested on: PIK3CA_C242 (Homo sapiens, UniProt P42336)
# Construct: endogenous in cells
# procedure text: Proteomic TE50 (IA-DTB / TMT mass spectrometry) in Jurkat cell lysate
# study conditions: 1 hour at rt, 7-point dose response
# Method: Example 4. […] TMT quantitation was performed with a filter requiring at least ten summed signal-to-noise (S/N) for control channels. TE50 values were calculated from 7-point dose response curves created using the reporter ion S/N for each channel.
// pIC50 here means minus log10 of the molar concentration (mol/L)

Dear colleague, I am looking for the recorded pIC50 of the following molecule: "COc1ccc(S(=O)(=O)N2CCC(F)(C(=O)N[C@@H](C)/C=C\S(C)(=O)=O)CC2)c(-c2ccccc2)c1"
6.69

Looking for the measured pIC50 of "CC[C@@H](/C=C\S(C)(=O)=O)NC(=O)C1(F)CCN(S(=O)(=O)c2ccc(Cl)cc2-c2cccc(OC)c2)CC1" , can you help?
6.27

Record request: pIC50 value, item "COc1cccc(-c2cc(OC)ccc2S(=O)(=O)N2CCC(F)(C(=O)NC/C=C/S(C)(=O)=O)CC2)c1"
6.15

Would you mind telling me what pIC50 value was observed for "CC(C)c1ccc(S(=O)(=O)N2CCC(F)(C(=O)N[C@H](C)/C=C\S(C)(=O)=O)CC2)c(-c2ccccc2Cl)c1" ?
6.17

Find the recorded pIC50 belonging to "C[C@@H](/C=C\S(C)(=O)=O)NC(=O)C1(F)CCN(S(=O)(=O)c2ccc(Cl)cc2-c2ccccc2)CC1" and report it.
7.05

Please report the recorded pIC50 for "CC(C)Oc1ccc(S(=O)(=O)N2CCC(F)(C(=O)N[C@H](C)/C=C\S(C)(=O)=O)CC2)c(-c2ccccc2Cl)c1" .
6.11

Please find the next molecule below.
State the recorded pIC50 for this entry: "C[C@@H](/C=C\S(C)(=O)=O)NC(=O)C1(F)CCN(S(=O)(=O)c2ccc(Cl)cc2-c2cccc(C#N)c2)CC1"
5.87
